Below, each entry is listed alongside its reported Human primary T Cell Binding (FOI).
- targetDesc: T1, human CD3 expressed on cells (human, UniProt P07766 23-207; P04234 22-171; P09693 23-182)
- T1 construct: whole, on cells; CD3 complex on Jurkat cells and on human primary T cells
- T1 sequence (P07766 23-207, chain 1 of 3): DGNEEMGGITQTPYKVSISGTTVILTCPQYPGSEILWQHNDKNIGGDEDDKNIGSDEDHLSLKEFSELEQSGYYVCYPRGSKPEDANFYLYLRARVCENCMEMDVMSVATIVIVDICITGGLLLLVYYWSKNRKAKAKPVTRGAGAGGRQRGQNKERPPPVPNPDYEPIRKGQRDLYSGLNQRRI
- T1 sequence (P04234 22-171, chain 2 of 3): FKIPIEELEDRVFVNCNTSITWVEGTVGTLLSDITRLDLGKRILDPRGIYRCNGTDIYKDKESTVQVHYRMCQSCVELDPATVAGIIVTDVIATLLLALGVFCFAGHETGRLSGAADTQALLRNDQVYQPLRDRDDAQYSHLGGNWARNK
- T1 sequence (P09693 23-182, chain 3 of 3): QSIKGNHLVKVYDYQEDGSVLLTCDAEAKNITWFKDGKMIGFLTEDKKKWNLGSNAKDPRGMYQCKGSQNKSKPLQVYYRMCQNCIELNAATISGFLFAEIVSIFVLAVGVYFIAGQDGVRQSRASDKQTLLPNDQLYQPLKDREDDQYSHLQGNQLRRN
- measurementNotes: flow cytometry, 25 nM
All answers are understood in FOI, so give the number only.

{"binder": "mAb 160 (antibody, V domains shown) VH: EVQLVESGGGLVQPGRSLRLSCAVSGFTFNDYTMHWVRQVPGKGLEWVSGISWNSGSIGYADSVKGRFTISRDNAKNSLYLQMNSLRAEDTALYFCAKDSSGYGHYYYYYMDVWGRGTTVTVSS VL: EIVMTQSPATLSVSPGERATLSCRASQSVRKNLAWYQQKPGQAPRLLIYGASTRATGIPARFSGSGSGTEFTLTISSLQSEDFAVYYCQLYNNWPHFGQGTRLEIK", "unitOfMeasurement": "FOI", "Human primary T Cell Binding (FOI)": 169}

# input binder: mAb 107 (antibody, V domains shown) VH: QVQLQESGPGLVKPSETLSLTCTVSGGSISSYCWSWIRQPPGKGLEWIGYIYNIGSTNFNPSLKSRVTISVDTSKNQFSLKLNSVTAADTAVYYCARGGLYSGNGGRFDPWGRGTLVTVSS VL: EIVLTQSPGTLSLSPGQTATLSCRASQGVRSNYLAWYQQKPGQAPRLLIYGASSRATGIPVRFSGSGSGTGFTLTMSRLEPEDFAVYYCQQYGSSPWTFGQGSKVEIK ; wanted: its Human primary T Cell Binding (FOI) 0.743

# input binder: mAb 105 (antibody, V domains shown) VH: QVQLQESGPGLVKPSATLSLTCTVSGGSISTYYWSWIRQSPGKGLEWIGYISYSVNTNPSLKSRVTISVDKSKNQLSLNLRSATGADTAVYYCARGGLYGGNAGRFDLWGQGTLVTVSS VL: EIVLTQSPGTLSLSPGERATLSCRASQSVINNYVAWYQQKPGQAPSLIITGVSRRATGIPDRFIGSGSGTDFILIISRLEPEDFAVYCCQQYGNSPWTFGQGTRVEIK ; wanted: its Human primary T Cell Binding (FOI) 0.842

# input binder: mAb 70 (antibody, V domains shown) VH: QGQLVESGGGVVQPGRSLRLSCEASGFTFRSYGMHWVRQPPGKGLEWVAIIWYDGGKKYYGDSVKGRFTISRDNPKNTLYLQMNSLRPEDTAVYYCMAYDYSNGFDIWGQGTMVTVSS VL: DIVMTQTPLSSPVTLGQPASISCRSSQSFVHSDGSTYLSWLQQRPGQPPRLLIYKISNRFSGVPDRFSGRGAGTDFTLKISRVEAEDVGIYYCMQNTQFPYTFGQGTKLEIK ; wanted: its Human primary T Cell Binding (FOI) 131

# input binder: mAb 83 (antibody, V domains shown) VH: QVQLVESGGGVVQPGRSLRLSCAASGFTFSGYGMHWVRQAPGKGLDWVAIIYYNGNNKYYADSVKGRFTISRDNSKNTLYLQMNSLRAEDTAVYYCARGGGYNWFDPWGQGTLVIVSS VL: DIQMTQSPSSLSASVGDRVTITCRPSQIIINYLNWYQQKPGKAPKLLIYAASSLQSGVPSRFSGSGSGTDFTLTISSLQPEDFATYYCQQSYSTPFTFGRGTRLEIK ; wanted: its Human primary T Cell Binding (FOI) 173
